Target of assay: PLK2 (human) (UniProt Q9NYY3)
Sequence (Q9NYY3 whole entry, looked up): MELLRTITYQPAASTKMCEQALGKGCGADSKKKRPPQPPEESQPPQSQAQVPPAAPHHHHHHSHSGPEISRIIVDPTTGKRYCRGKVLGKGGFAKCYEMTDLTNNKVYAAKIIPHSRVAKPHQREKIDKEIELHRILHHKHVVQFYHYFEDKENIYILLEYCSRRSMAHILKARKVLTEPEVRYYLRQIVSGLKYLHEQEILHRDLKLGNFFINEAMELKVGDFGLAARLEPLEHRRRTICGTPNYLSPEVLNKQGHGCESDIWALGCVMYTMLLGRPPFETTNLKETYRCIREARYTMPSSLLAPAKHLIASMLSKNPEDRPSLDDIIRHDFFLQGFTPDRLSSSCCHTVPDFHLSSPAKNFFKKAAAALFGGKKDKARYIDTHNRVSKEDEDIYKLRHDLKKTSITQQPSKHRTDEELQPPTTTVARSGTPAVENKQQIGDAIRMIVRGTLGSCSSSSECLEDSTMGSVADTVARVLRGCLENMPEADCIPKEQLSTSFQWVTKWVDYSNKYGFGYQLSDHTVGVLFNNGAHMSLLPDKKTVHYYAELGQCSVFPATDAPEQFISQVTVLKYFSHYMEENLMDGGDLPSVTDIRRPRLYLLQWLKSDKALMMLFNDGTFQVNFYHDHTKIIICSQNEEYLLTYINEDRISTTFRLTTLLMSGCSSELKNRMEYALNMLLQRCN
Assay procedure: IMAP-FP
Measurement conditions: compound 0.02 µM
Readout type: inhibition (%)
Answers are plain numbers, in %.

I would be grateful if you could provide inhibition for each of the following entries.
1. Cc1ccc(Nc2nccc(N(C)c3ccc4c(C)n(C)nc4c3)n2)cc1S(N)(=O)=O
2. CNC(=O)c1ccccc1Sc1ccc2c(/C=C/c3ccccn3)n[nH]c2c1
3. CNC(=O)c1cc(Oc2ccc(NC(=O)Nc3ccc(Cl)c(C(F)(F)F)c3)cc2)ccn1
4. COc1cc2c(Oc3ccc4[nH]c(C)cc4c3F)ncnc2cc1OCCCN1CCCC1

Out:
1. 3.9
2. 1.7
3. -0.6
4. -0.9
